Reference source for all entries: patent US20200055939A1

experimental-system: T1, huMICA*008 alpha 3-his (human)
T1 construct: whole construct entry: GS, alpha 3 domain (Thr204-Ser297), GNS, His8; also the construct of the FPOP experiment; also called MICA008.His; MICA*008 alpha3 construct
T1 chain: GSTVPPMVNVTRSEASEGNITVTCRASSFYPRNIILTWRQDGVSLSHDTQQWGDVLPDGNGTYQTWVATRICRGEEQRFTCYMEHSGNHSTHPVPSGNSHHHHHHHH
assay-protocol: SPR, Biacore 8K, antibody on Protein A chip
Quick list: Kd per entry.
Write down the value, and be sure its unit follows.

Solved entries:
binder	reading
1D5v20 (antibody, IgG1, V domains shown, humanized variant of 1D5) VH: EIQLVQSGAEVKKPGASVKVSCKASGYAFTSQNIYWVRQAPGQGLEWIGYIEPYNVVPMYNPKFKGRVTLTVDKSTSTAYLELSSLRSEDTAVYYCARSGSSNFDYWGQGTLVTVSS VL: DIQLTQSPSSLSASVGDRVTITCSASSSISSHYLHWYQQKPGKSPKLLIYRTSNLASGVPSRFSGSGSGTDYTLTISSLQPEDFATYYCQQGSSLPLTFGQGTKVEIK	0.83 nM
1D5v21 (antibody, IgG1, V domains shown, humanized variant of 1D5) VH: EIQLVQSGAEVKKPGASVKVSCKASGYAFTSQNIYWVRQAPGQGLEWIGYIEPYNVVPMYNPKFKGRATITVDKSTSTAYLELSSLRSEDTAVYYCARSGSSNFDYWGQGTLVTVSS VL: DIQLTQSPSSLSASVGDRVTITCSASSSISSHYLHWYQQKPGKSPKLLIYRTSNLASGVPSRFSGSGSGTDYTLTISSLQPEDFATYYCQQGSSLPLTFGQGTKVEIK	0.99 nM
13A9v5 (antibody, IgG1, V domains shown, humanized variant of 13A9) VH: EVQLVQSGAEVKKPGSSVKVSCKASGYAFTNYLIEWVRQAPGQGLEWIGAINPGSGATNYNEKFKDRATLTADKSTNTAYMELSSLRSEDTAVYFCARFLGNYFDNWGQGTLVTVSS VL: DIQMTQSPSSLSASVGDRVTITCRASGNIHSYLAWYQQKPGKAPKLLIYYAETLADGVPSRFSGSGSGTDFTLTISSLQPEDFATYYCQQFWTTPYTFGQGTKVEIK	3.68 nM

Inquiry: # get_value(readout='Kd', item= 1D5v1 (antibody, IgG1, V domains shown, humanized variant of 1D5; also called lD5v1) VH: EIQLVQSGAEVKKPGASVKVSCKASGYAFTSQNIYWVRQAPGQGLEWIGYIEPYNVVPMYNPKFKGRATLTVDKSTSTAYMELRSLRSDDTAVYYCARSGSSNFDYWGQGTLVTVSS VL: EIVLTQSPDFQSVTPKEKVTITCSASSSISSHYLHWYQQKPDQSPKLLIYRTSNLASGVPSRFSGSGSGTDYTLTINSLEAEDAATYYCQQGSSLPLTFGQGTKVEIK )
Reply text: 0.96 nM

Inquiry: # get_value(readout='Kd', item= 15F11v4 (antibody, IgG1, V domains shown, humanized variant of 15F11) VH: EIQLVQSGAEVKKPGASVKVSCKPSGYAFTSNNIYWVRQAPGQGLEWIGYIDPYIGRIIYNQQFKDRATLTVDKSTSTAYLELSSLRSEDTAVYYCSRSGERSNFDYWGQGTLVTVSS VL: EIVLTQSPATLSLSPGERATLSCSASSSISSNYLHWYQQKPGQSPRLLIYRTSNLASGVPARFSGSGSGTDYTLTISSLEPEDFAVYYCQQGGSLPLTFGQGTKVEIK )
Reply text: 2.58 nM
